Origin of the recorded values: paper PMC10460844

Reported HC10 values for a set of compounds
Tested on: rat erythrocytes
Assay: Hemolysis assay
Format: cell-based
Conditions: pH 7.4
Provide only the numeric value, understood in µM.

Example results:
COMPOUND	ASSAY_METRIC	QUANTITY_UNIT	RESULT_VALUE
C[C@@H](c1ccccc1)N(CC(N)=O)C(=O)CN(C(=O)CN(CCCCN)C(=O)CN(C(=O)CN(C(=O)CN(CCCCN)C(=O)CN(C(=O)CN(C(=O)CN(CCCCN)C(=O)CN(C(=O)CN(C(=O)CN(CCCCN)C(=O)CNCCc1c[nH]c2ccccc12)[C@@H](C)c1ccccc1)[C@@H](C)c1ccccc1)[C@@H](C)c1ccccc1)[C@@H](C)c1ccccc1)[C@@H](C)c1ccccc1)[C@@H](C)c1ccccc1)[C@@H](C)c1ccccc1 [peptoid 3]	HC10	µM	6.3
C[C@@H](c1ccccc1)N(CC(N)=O)C(=O)CN(CCCCN)C(=O)CN(C(=O)CN(C(=O)CN(CCCCN)C(=O)CN(C(=O)CN(CCCCN)C(=O)CN(CCCCN)C(=O)CN(C(=O)CN(C(=O)CN(CCCCN)C(=O)CN(C(=O)CNCCc1c[nH]c2ccccc12)[C@@H](C)c1ccccc1)[C@@H](C)c1ccccc1)[C@@H](C)c1ccccc1)[C@@H](C)c1ccccc1)[C@@H](C)c1ccccc1)[C@@H](C)c1ccccc1 [peptoid 63]	HC10	µM	85.0

Next:
Which measured HC10 value corresponds to C[C@@H](c1ccccc1)N(CC(N)=O)C(=O)CN(CCCCN)C(=O)CN(C(=O)CN(C(=O)CN(CCCCN)C(=O)CN(C(=O)CN(C(=O)CN(CCCCN)C(=O)CN(C(=O)CN(CCCCN)C(=O)CN(CCCCN)C(=O)CN(C(=O)CNCCc1c[nH]c2ccccc12)[C@@H](C)c1ccccc1)[C@@H](C)c1ccccc1)[C@@H](C)c1ccccc1)[C@@H](C)c1ccccc1)[C@@H](C)c1ccccc1)[C@@H](C)c1ccccc1 [peptoid 64] ? 70.7
